# Test system: calf thymus double stranded DNA and ribosomal RNA
# PROTOCOL TEXT: Determination of DNA/RNA fluorescence ratios
# Type: binding
# RUN PARAMETERS: emission value, second number of ex/em cell
# Description: The tested compound was dissolved as a stock solution in DMSO at a concentration of about 0.1-1.0 mg/mL. The exact concentration is not critical. Three tubes are prepared, each containing the same 1-20 uL of stock solution. […] In some cases, it was necessary to dilute the sample to keep the fluorescence signal on-scale. […] The ratio of the fluorescence of the compound in the presence of DNA and RNA was determined. […]
Reported ex/em: emission is given for each of the following compounds.
ASSAY METRIC: ex/em: emission (nm)

{"columns": ["MOLECULAR STRING", "ASSAY METRIC", "UNIT OF MEASURE", "MEASURED RESULT"],
 "data": [
  ["COc1cccc(OC)c1-c1ccc2c(c1)sc(C=C1C=CN(C)c3ccccc31)[n+]2C", "ex/em: emission", "nm", 536],
  ["CCCN(CCCN(C)C)C1=CC(=Cc2sc3cc(-c4c(OC)cccc4OC)ccc3[n+]2C)c2ccc(OC)cc2N1Cc1ccccc1", "ex/em: emission", "nm", 522],
  ["CCCN(CCCN(C)C)C1=CC(=Cc2sc3cc(-c4c(C)cccc4C)ccc3[n+]2C)c2ccccc2N1c1ccccc1", "ex/em: emission", "nm", 523],
  ["COc1cccc(OC)c1-c1ccc2c(c1)sc(C=C1C=C(n3ccnc3)N(Cc3ccccc3)c3ccccc31)[n+]2C", "ex/em: emission", "nm", 553],
  ["COc1cccc(OC)c1-c1ccc2c(c1)sc(C=C1C=C(N3CCN(C)CC3)N(Cc3ccccc3)c3ccccc31)[n+]2C", "ex/em: emission", "nm", 536]
]}

----------
// values below are reported ex/em: emission
# Tested on: calf thymus double stranded DNA and ribosomal RNA
# PROTOCOL TEXT: Determination of DNA/RNA fluorescence ratios
# Type: binding
# RUN PARAMETERS: emission value, second number of ex/em cell
ASSAY METRIC: ex/em: emission (nm)

{"columns": ["MOLECULAR STRING", "ASSAY METRIC", "MEASURED RESULT"],
 "data": [
  ["C#CCN1C(N(CCC)CCCN(C)C)=CC(=Cc2sc3cc(-c4c(OC)cccc4OC)ccc3[n+]2C)c2ccccc21", "ex/em: emission", 532],
  ["CCCN(CCCN(C)C)C1=CC(=Cc2sc3cc(-c4c(OC)cccc4OC)ccc3[n+]2C)c2cc(OC)ccc2N1Cc1ccccc1", "ex/em: emission", 536],
  ["COc1cccc(OC)c1-c1ccc2c(c1)sc(C=C1C=CN(CCc3ccccc3)c3ccccc31)[n+]2C", "ex/em: emission", 539],
  ["COc1cccc(OC)c1-c1ccc2c(c1)sc(/C=C1\\C=C(N(C)CCCC(=O)NCCOCCOCCOCCO)N(Cc3ccccc3)c3ccccc31)[n+]2C", "ex/em: emission", 527],
  ["CNCCCN(C)C1=CC(=Cc2sc3cc(-c4c(OC)cccc4OC)ccc3[n+]2C)c2ccccc2N1Cc1ccccc1", "ex/em: emission", 529],
  ["CCN(CC)Cc1ccc(C2=CC(=Cc3sc4cc(-c5c(OC)cccc5OC)ccc4[n+]3C)c3ccccc3N2Cc2ccccc2)cc1", "ex/em: emission", 559],
  ["CCCN(CCCN(C)C)C1=CC(=Cc2sc3cc(C(COC)COC)ccc3[n+]2C)c2ccccc2N1Cc1ccccc1", "ex/em: emission", 527],
  ["Cc1cccc(C)c1-c1ccc2c(c1)sc(C=C1C=C(N(C)CCCN(C)C)N(Cc3ccccc3)c3ccccc31)[n+]2C", "ex/em: emission", 524],
  ["COc1cccc(OC)c1-c1ccc2c(c1)sc(C=C1C=C(N3CCNCC3)N(Cc3ccccc3)c3ccccc31)[n+]2C", "ex/em: emission", 534],
  ["CCCN(CCCN(C)C)C1=CC(=Cc2sc3cc(-c4c(OC)cccc4OC)ccc3[n+]2C)c2ccccc2N1C", "ex/em: emission", 527],
  ["CCN(CC)Cc1ccc(C2=CC(=Cc3sc4cc(-c5ccccc5)ccc4[n+]3C)c3ccccc3N2c2ccccc2)cc1", "ex/em: emission", 563],
  ["COc1cccc(OC)c1-c1ccc2c(c1)sc(/C=C1\\C=C(N(C)CCCC(=O)O)N(Cc3ccccc3)c3ccccc31)[n+]2C", "ex/em: emission", 525],
  ["COc1cccc(OC)c1-c1ccc2c(c1)sc(C=C1C=CN(Cc3ccc(C[N+](C)(C)CCC[N+](C)(C)C)cc3)c3ccccc31)[n+]2C", "ex/em: emission", 542],
  ["C[n+]1c(C=C2C=CN(Cc3ccccc3)C(c3ccccc3)=C2)sc2cc(-c3ccccc3)ccc21", "ex/em: emission", 514],
  ["COc1cccc(OC)c1-c1ccc2c(c1)sc(C=C1C=CN(Cc3ccc(CN(C)CCCN(C)C)cc3)c3ccccc31)[n+]2C", "ex/em: emission", 541],
  ["CNCCN(C)C1=CC(=Cc2sc3cc(-c4c(OC)cccc4OC)ccc3[n+]2C)c2ccccc2N1Cc1ccccc1", "ex/em: emission", 534],
  ["C[n+]1cccc(-c2ccc3c(c2)sc(C=C2C=CN(Cc4ccccc4)c4ccccc42)[n+]3C)c1", "ex/em: emission", 534],
  ["Cc1cccc(C)c1-c1ccc2c(c1)sc(C=C1C=C(N(C)CCCN(C)C)N(c3ccccc3)c3ccccc31)[n+]2C", "ex/em: emission", 523],
  ["C[n+]1c(C=C2C=CN(Cc3ccccc3)c3ccccc32)sc2cc(-c3ccc(O)cc3)ccc21", "ex/em: emission", 551],
  ["COc1cccc(OC)c1-c1ccc2c(c1)sc(C=C1C=CN(Cc3ccc(CN4CCOCC4)cc3)c3ccccc31)[n+]2C", "ex/em: emission", 541],
  ["CC(=O)Nc1ccccc1-c1ccc2c(c1)sc(C=C1C=CN(Cc3ccccc3)c3ccccc31)[n+]2C", "ex/em: emission", 530],
  ["C[n+]1c(C=CC=C2C=CN(Cc3ccccc3)c3ccccc32)sc2cc(-c3ccccc3)ccc21", "ex/em: emission", 537],
  ["C[n+]1c(C=C2C=CN(Cc3ccccc3)c3ccccc32)oc2ccc(-c3ccccc3)cc21", "ex/em: emission", 512],
  ["CCCCn1cc(N2C(N(CCC)CCCN(C)C)=CC(=Cc3sc4cc(-c5c(OC)cccc5OC)ccc4[n+]3C)c3ccccc32)nn1", "ex/em: emission", 536],
  ["COC1=CC(=Cc2sc3cc(-c4c(OC)cccc4OC)ccc3[n+]2C)c2ccccc2N1Cc1ccccc1", "ex/em: emission", 517],
  ["COc1cccc(OC)c1-c1ccc2c(c1)sc(C=C1C=CN(Cc3ccc(C[N+](C)(C)C)cc3)c3ccccc31)[n+]2C", "ex/em: emission", 540],
  ["CCCCC1=CC(=Cc2sc3cc(-c4c(OC)cccc4OC)ccc3[n+]2C)c2ccccc2N1Cc1ccccc1", "ex/em: emission", 541]
]}

----------
# Test system: calf thymus double stranded DNA and ribosomal RNA
# PROTOCOL TEXT: Determination of DNA/RNA fluorescence ratios
# Type: binding
# RUN PARAMETERS: emission value, second number of ex/em cell
ASSAY METRIC: ex/em: emission (nm)

{"columns": ["COMPOUND", "UNIT OF MEASURE", "MEASURED RESULT"],
 "data": [
  ["CCOC(=O)CCCOc1cccc(CN2C=CC(=CC=Cc3sc4cc(-c5ccccc5)ccc4[n+]3C)c3ccccc32)c1 [Compound 104]", "nm", 666],
  ["CCOC(=O)CCCOc1cccc(CN2C=C/C(=C\\c3sc4cc(-c5c(OC)cccc5OC)ccc4[n+]3C)c3ccccc32)c1 [Compound 112]", "nm", 541],
  ["C[n+]1c(C=C2C=CN(Cc3ccccc3)c3ccccc32)sc2cc(-c3cc4ccccc4s3)ccc21 [Compound 95]", "nm", 591],
  ["CN1C(=Cc2cc[n+](C)c3ccccc23)Sc2ccccc21 [Thiazole orange, reference compound]", "nm", 530]
]}

----------
Entries annotated with measured ex/em: excitation
# Test system: calf thymus double stranded DNA and ribosomal RNA
# PROTOCOL TEXT: Determination of DNA/RNA fluorescence ratios
# Assay type: binding
# RUN PARAMETERS: excitation value, first number of ex/em cell
ASSAY METRIC: ex/em: excitation (nm)

{"columns": ["MOLECULAR STRING", "ASSAY TARGET", "MEASURED RESULT"],
 "data": [
  ["COc1cccc(OC)c1-c1ccc2c(c1)sc(C=C1C=CN(C)c3ccccc31)[n+]2C", "calf thymus double stranded DNA and ribosomal RNA", 506],
  ["COc1cccc(OC)c1-c1ccc2c(c1)sc(C=C1C=C(N3CCNCC3)N(Cc3ccccc3)c3ccccc31)[n+]2C", "calf thymus double stranded DNA and ribosomal RNA", 510],
  ["CCOC(=O)CCCOc1cccc(CN2C=C/C(=C\\c3sc4cc(-c5c(OC)cccc5OC)ccc4[n+]3C)c3ccccc32)c1", "calf thymus double stranded DNA and ribosomal RNA", 500],
  ["CCCN(CCCN(C)C)C1=CC(=Cc2sc3cc(C(COC)COC)ccc3[n+]2C)c2ccccc2N1Cc1ccccc1", "calf thymus double stranded DNA and ribosomal RNA", 503],
  ["COc1cccc(OC)c1-c1ccc2c(c1)sc(C=C1C=CN(Cc3ccccc3)C(SCCCN(C)C)=C1)[n+]2C", "calf thymus double stranded DNA and ribosomal RNA", 475],
  ["COc1cccc(OC)c1-c1ccc2c(c1)sc(C=C1C=CN(Cc3ccc(C[N+](C)(C)CCC[N+](C)(C)C)cc3)c3ccccc31)[n+]2C", "calf thymus double stranded DNA and ribosomal RNA", 520],
  ["CCCN(CCCN(C)C)C1=CC(=Cc2sc3cc(-c4c(C)cccc4C)ccc3[n+]2C)c2ccccc2N1c1ccccc1", "calf thymus double stranded DNA and ribosomal RNA", 498],
  ["C#CCN1C(N(CCC)CCCN(C)C)=CC(=Cc2sc3cc(-c4c(OC)cccc4OC)ccc3[n+]2C)c2ccccc21", "calf thymus double stranded DNA and ribosomal RNA", 503],
  ["C[n+]1c(C=C2C=CN(Cc3ccccc3)c3ccccc32)sc2cc(-c3cc4ccccc4s3)ccc21", "calf thymus double stranded DNA and ribosomal RNA", 550],
  ["CNCCN(C)C1=CC(=Cc2sc3cc(-c4c(OC)cccc4OC)ccc3[n+]2C)c2ccccc2N1Cc1ccccc1", "calf thymus double stranded DNA and ribosomal RNA", 505],
  ["C[n+]1c(C=C2C=CN(Cc3ccccc3)C(c3ccccc3)=C2)sc2cc(-c3ccccc3)ccc21", "calf thymus double stranded DNA and ribosomal RNA", 466],
  ["C[n+]1c(C=C2C=CN(Cc3ccccc3)c3ccccc32)sc2cc(-c3cccs3)ccc21", "calf thymus double stranded DNA and ribosomal RNA", 527],
  ["COc1cccc(OC)c1-c1ccc2c(c1)sc(C=C1C=CN(Cc3ccc(CN4CCN(C)CC4)cc3)c3ccccc31)[n+]2C", "calf thymus double stranded DNA and ribosomal RNA", 510],
  ["CC(=O)Nc1ccccc1-c1ccc2c(c1)sc(C=C1C=CN(Cc3ccccc3)c3ccccc31)[n+]2C", "calf thymus double stranded DNA and ribosomal RNA", 513]
]}
